Assay: Stability analysis in buffered solution (half-life)
Assay type: physicochemical
Settings: 0.1 M NaOAc pH 4.6; 40 °C; initial concentration 1.88 × 10^-3 M
METRIC: half-life at 1880 µM (min)
Give bare numbers, in min.

Lab note: CC1(C)COC(C)(C)N1Cl gave half-life at 1880 µM of 132

====

Assay: Stability analysis in buffered solution (half-life)
Format: physicochemical
Conditions: 0.1 M NaH2PO4 pH 7.0; 40 °C; initial concentration 3.05 × 10^-3 M
METRIC: half-life at 3050 µM

# compound CC1(C)COC(C)(C)N1Cl ; its half-life at 3050 µM = ~2.25 days
